# tgt: human C5 protein (human, UniProt P01031 19-673; P01031 678-1676)
# assay_method_text: cell-based or functional assay
Positions of bridges follow the written chain, without caps; N, C: chain ends. Non-standard residues stand in square brackets, D forms with d. Primed or numbered codes have the meaning given here. mXylyl(3) = bridging moiety between the two residues given in brackets; m‑xylyl = bridging moiety between the two residues given in brackets; Trp(7-aza) = N[C@@H](Cc1c[nH]c2ncccc12)C(=O)O; Phg = N[C@H](C(=O)O)c1ccccc1; Tle = CC(C)(C)[C@H](N)C(=O)O; NMeS = CN[C@@H](CO)C(=O)O; Nva = CCC[C@H](N)C(=O)O; Sar = CNCC(=O)O
quantity_kind: Avg. IC50, human hemolysis assay (nM)
Unit nM implied. Number only.

Some entries whose results are on file:
[
  {
    "binder": "Ac-CAERFCD[Tle]Y[Trp(7-aza)]EYP[Phg]K-NH2 (linker 1-6 via m‑xylyl) [R3161]",
    "test_value": 7
  },
  {
    "binder": "Ac-[Nva]CYEN[Tle]Y[Trp(7-aza)]EY[Sar][Nva][NMeS]-NH2 (SMILES CCC[C@H](NC(C)=O)C(=O)N[C@@H](CS)C(=O)N[C@@H](Cc1ccc(O)cc1)C(=O)N[C@@H](CCC(=O)O)C(=O)N[C@@H](CC(N)=O)C(=O)N[C@H](C(=O)N[C@@H](Cc1ccc(O)cc1)C(=O)N[C@@H](Cc1c[nH]c2ncccc12)C(=O)N[C@@H](CCC(=O)O)C(=O)N[C@@H](Cc1ccc(O)cc1)C(=O)N(C)CC(=O)N[C@@H](CCC)C(=O)N(C)[C@@H](CO)C(N)=O)C(C)(C)C) [R3001]",
    "test_value": 67.2
  }
]

Request: Look up Avg. IC50, human hemolysis assay for this binder: Ac-CVERFCD[Tle]YWEF-NH2 (linker 1-6 via mXylyl(3)) [R3138]
Result: 87.2
